experimental readout: MIC (µM)
Report the figure in µM without appending any unit label.

Exam item: Report MIC from Staphylococcus aureus testing of COC(=O)c1cc(OC)c(OC)c(OC)c1NC(=O)c1ccccc1NC(=O)c1cccnc1 [Compound 4]
Marked response: 52.4

Exam item: Report MIC from Staphylococcus aureus testing of COC(=O)c1cccc(O)c1NC(=O)c1ccccc1NC(=O)c1cccnc1 [Compound 1]
Marked response: 63.9

----------
system: BEL-7402 cell line; assay: in vitro; settings: human
experimental readout: IC50 at 72 h
State the value, then name its unit.

Exam item: Answer with the recorded IC50 at 72 h of COc1cc([C@@H]2c3cc4c(cc3[C@@H](O[C@@H]3O[C@@H]5CO[C@@H](C)O[C@H]5[C@H](O)[C@H]3O)[C@H]3COC(=O)[C@H]23)OCO4)cc(OC)c1O [Vp-16, Etoposide, reference compound] only.
Marked response: 830 nM
